Kd overview
Biological target: BRD4-BD2 (Homo sapiens)
Test: Binding affinity to BRD4-BD2 (bromoKdELECT assay)
Details: 11-point 3-fold dilution series

Molecule	Kd
Cn1cc(-c2cc(NS(=O)(=O)C3CC3)ccc2Oc2cccc(OCCOC3CCN(c4ncc(C(=O)N[C@H]5C(C)(C)[C@H](Oc6ccc(C#N)c(Cl)c6)C5(C)C)cn4)CC3)c2)c2cc[nH]c2c1=O	0.5 to 2.5 µM
CCS(=O)(=O)Nc1ccc(OCC(OCCCOC2CCN(c3ncc(C(=O)N[C@H]4C(C)(C)[C@H](Oc5ccc(C#N)c(Cl)c5)C4(C)C)cn3)CC2)C2CC2)c(-c2cn(C)c(=O)c3[nH]ccc23)c1 (some centres unmarked)	0.5 to 2.5 µM
CCS(=O)(=O)N(C)c1ccc(Oc2cccc(OCCOC3CCN(c4ncc(C(=O)N[C@H]5C(C)(C)[C@H](Oc6ccc(C#N)c(Cl)c6)C5(C)C)cn4)CC3)c2)c(-c2cn(C)c(=O)c3[nH]ccc23)c1	0.5 to 2.5 µM
Cn1cc(-c2cc(C(C)(C)O)ccc2Oc2cccc(CCOC3CCN(c4ncc(C(=O)N[C@H]5C(C)(C)[C@H](Oc6ccc(C#N)c(Cl)c6)C5(C)C)cn4)CC3)c2)c2cc[nH]c2c1=O	< 0.05 µM
CCS(=O)(=O)Nc1ccc(Oc2cccc(OCCOCCOCCOCCOCCOC3CCN(c4ncc(C(=O)N[C@H]5C(C)(C)[C@H](Oc6ccc(C#N)c(Cl)c6)C5(C)C)cn4)CC3)c2)c(-c2cn(C)c(=O)c3[nH]ccc23)c1	< 0.05 µM
CCS(=O)(=O)Nc1ccc(Oc2cccc(OCCOC3CCN(c4ncc(C(=O)N[C@H]5C(C)(C)[C@H](Oc6ccc(C#N)c(Cl)c6)C5(C)C)cn4)CC3)n2)c(-c2cn(C)c(=O)c3[nH]ccc23)c1	< 0.05 µM
Cn1cc(-c2cc(C(C)(C)O)ccc2Oc2ccc(N3CC(CN4CC5CC4CN5c4ncc(C(=O)N[C@H]5C(C)(C)[C@H](Oc6ccc(C#N)c(Cl)c6)C5(C)C)cn4)C3)cc2)c2cc[nH]c2c1=O (some centres unmarked)	< 0.05 µM
CCS(=O)(=O)Cc1ccc(Oc2cccc(CCCN3CCN(c4ncc(C(=O)N[C@H]5C(C)(C)[C@H](Oc6ccc(C#N)c(Cl)c6)C5(C)C)cn4)CC3)c2)c(-c2cn(C)c(=O)c3[nH]ccc23)c1	< 0.05 µM
CCS(=O)(=O)Nc1ccc(Oc2cccc(OCCOCCOC3CCN(c4ncc(C(=O)N[C@H]5C(C)(C)[C@H](Oc6ccc(C#N)c(Cl)c6)C5(C)C)cn4)CC3)c2)c(-c2cn(C)c(=O)c3[nH]ccc23)c1	< 0.05 µM
CCS(=O)(=O)Nc1ccc(Oc2cccc(OCCOCCOCCOC3CCN(c4ncc(C(=O)N[C@H]5C(C)(C)[C@H](Oc6ccc(C#N)c(Cl)c6)C5(C)C)cn4)CC3)c2)c(-c2cn(C)c(=O)c3[nH]ccc23)c1	< 0.05 µM
Cn1cc(-c2cc(C(C)(C)O)ccc2Oc2cccc(N3CC(CC4CCN(c5ncc(C(=O)N[C@H]6C(C)(C)[C@H](Oc7ccc(C#N)c(Cl)c7)C6(C)C)cn5)CC4)C3)c2F)c2cc[nH]c2c1=O	< 0.05 µM
CCS(=O)(=O)Nc1ccc(Oc2cccc(OCCOCCOCCOCCOCCN(C)c3ncc(C(=O)N[C@H]4C(C)(C)[C@H](Oc5ccc(C#N)c(Cl)c5)C4(C)C)cn3)c2)c(-c2cn(C)c(=O)c3[nH]ccc23)c1	< 0.05 µM
CCS(=O)(=O)Nc1ccc(Oc2cccc(NCCOC3CCN(c4ncc(C(=O)N[C@H]5C(C)(C)[C@H](Oc6ccc(C#N)c(Cl)c6)C5(C)C)cn4)CC3)c2)c(-c2cn(C)c(=O)c3[nH]ccc23)c1	< 0.05 µM
Cn1cc(-c2cc(C(C)(C)O)ccc2Oc2ccc(CCC3CCN(c4ncc(C(=O)N[C@H]5C(C)(C)[C@H](Oc6ccc(C#N)c(Cl)c6)C5(C)C)cn4)CC3)cc2)c2cc[nH]c2c1=O	> 2.5 µM

----------
Molecular target: BRD4-BD2 (Homo sapiens)
Experiment: Binding affinity to BRD4-BD2 (bromoKdELECT assay)
Conditions: 11-point 3-fold dilution series
pKd: −log10 of the molar value.
Entries and their pKd

Compound	pKd
CCS(=O)(=O)c1ccc(OC(COCCOC2CCN(c3ncc(C(=O)NC4C(C)(C)C(Oc5ccc(C#N)c(Cl)c5)C4(C)C)cn3)CC2)C2CC2)c(-c2cn(C)c(=O)c3[nH]ccc23)c1 (centres unmarked) [Compound I-186]	6.30 to 7.30
Cn1cc(-c2ccccc2Oc2cccc(N3CC(N4CCN(c5ncc(C(=O)N[C@H]6C(C)(C)[C@H](Oc7ccc(C#N)c(Cl)c7)C6(C)C)cn5)CC4)C3)c2F)c2cc[nH]c2c1=O [Compound I-94]	6.30 to 7.30
CN(c1ccc(Oc2cccc(N3CC(N4CCN(c5ncc(C(=O)N[C@H]6C(C)(C)[C@H](Oc7ccc(C#N)c(Cl)c7)C6(C)C)cn5)CC4)C3)c2)c(-c2cn(C)c(=O)c3[nH]ccc23)c1)S(=O)(=O)C1CC1 [Compound I-88]	6.30 to 7.30
CCS(=O)(=O)Cc1ccc(Oc2cccc(CCCN3CCN(c4ncc(C(=O)N[C@H]5C(C)(C)[C@H](Oc6ccc(C#N)c(Cl)c6)C5(C)C)cn4)CC3)c2F)c(-c2cn(C)c(=O)c3[nH]ccc23)c1 [Compound I-144]	> 7.30
CCS(=O)(=O)Nc1ccc(Oc2cccc(N3CCN(C4CN(c5ncc(C(=O)N[C@H]6C(C)(C)[C@H](Oc7ccc(C#N)c(Cl)c7)C6(C)C)cn5)C4)CC3)c2)c(-c2cn(C)c(=O)c3[nH]ccc23)c1 [Compound I-126]	> 7.30
Cn1cc(-c2cc(C(C)(C)O)ccc2Oc2cccc(OCCOC3CCN(c4ncc(C(=O)N[C@H]5C(C)(C)[C@H](Oc6ccc(C#N)c(Cl)c6)C5(C)C)cn4)CC3)c2)c2cc[nH]c2c1=O [Compound I-56]	6.30 to 7.30
CCS(=O)(=O)Nc1ccc(Oc2cccc(N(C)C3CN(CC4CCN(c5ncc(C(=O)NC6C(C)(C)C(Oc7ccc(C#N)c(Cl)c7)C6(C)C)cn5)CC4)C3)c2)c(-c2cn(C)c(=O)c3[nH]ccc23)c1 (centres unmarked) [Compound I-39]	> 7.30
Cc1ccc(CCCOC2CCN(c3ncc(C(=O)N[C@H]4C(C)(C)[C@H](Oc5ccc(C#N)c(Cl)c5)C4(C)C)cn3)CC2)cc1Oc1ccc(C(C)(C)O)cc1-c1cn(C)c(=O)c2[nH]ccc12 [Compound I-192]	6.30 to 7.30
Cn1cc(-c2cc(C(C)(C)O)ccc2Oc2cccc(OCCC3CCN(c4ncc(C(=O)N[C@H]5C(C)(C)[C@H](Oc6ccc(C#N)c(Cl)c6)C5(C)C)cn4)CC3)c2)c2cc[nH]c2c1=O [Compound I-156]	6.30 to 7.30
CCS(=O)(=O)Nc1ccc(Oc2cccc(OCCOC3CCN(c4ncc(C(=O)N[C@H]5C(C)(C)[C@H](Oc6ccc(C#N)c(Cl)c6)C5(C)C)cn4)CC3)c2)c(-c2cn(C)c(=O)c3c2ccn3C)c1 [Compound I-121]	< 5.60
CN(c1ccc(Oc2cccc(OCCOC3CCN(c4ncc(C(=O)N[C@H]5C(C)(C)[C@H](Oc6ccc(C#N)c(Cl)c6)C5(C)C)cn4)CC3)c2)c(-c2cn(C)c(=O)c3[nH]ccc23)c1)S(C)(=O)=O [Compound I-51]	5.60 to 6.30
